# Tested on: TE-6 (Esophageal Squamous Cell Carcinoma);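 further: after 72 h of two-drug dosing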
# test: Bliss excess, mean over the matrix (fraction); higher = more synergy
Quick rule for you: Bliss excess at 0.004 or higher means MET, lower means NOT MET.

{"compound": "COc1nnc2ccc(N3CCC(c4ccc(OCCN5CCN(C)C(=O)[C@H]5C)cc4)CC3)nn12 [AZD5153] + Cn1cnc2c(F)c(Nc3ccc(Br)cc3Cl)c(C(=O)NOCCO)cc21 [Selumetinib] (first compound max 1 µM, 7x7, partner max 10 µM)", "class.assignment": "NOT MET"}
{"compound": "COc1cccc(OCCCN)c1-c1cc(Nc2cnc(C#N)cn2)n[nH]1 [Prexasertib] + C[C@@H]1COCCN1C2=NC(=NC(=C2)C3(CC3)[S@](=N)(=O)C)C4=C5C=CNC5=NC=C4 [AZD6738] (first compound max 1 µM, 7x7, partner max 10 µM)", "class.assignment": "MET"}
{"compound": "Cc1c2c(nn1C)CSCc1cc(n(C)n1)CSc1cc(c3ccccc3c1)OCCCc1c(C(=O)O)n(C)c3c-2c(Cl)ccc13 [AZD5991] + C=CCn1c(=O)c2cnc(Nc3ccc(N4CCN(C)CC4)cc3)nc2n1-c1cccc(C(C)(C)O)n1 [AZD1775] (first compound max 1 µM, partner max 1 µM)", "class.assignment": "MET"}
{"compound": "Cc1cc2ncnn2cc1Nc1ncc2c(n1)n(C1CCOCC1)c(=O)n2C [AZD7648] + O=C(c1cc(Cc2n[nH]c(=O)c3ccccc23)ccc1F)N1CCN(C(=O)C2CC2)CC1 [Olaparib] (first compound max 10 µM, 7x7, partner max 10 µM)", "class.assignment": "NOT MET"}
{"compound": "CN(C)CCCOc1ccc(-c2ccc3ncc4c(c3c2)n(C2CCOCC2)c(=O)n4C)cn1 [AZD0156] + CCN(CCO)CCCOc1ccc2c(Nc3cc(CC(=O)Nc4cccc(F)c4)[nH]n3)ncnc2c1 [AZD2811] (first compound max 1 µM, 7x7, partner max 1 µM)", "class.assignment": "MET"}

Consider the record given below.
Assess whether reported Bliss excess for Cc1c2c(nn1C)CSCc1cc(n(C)n1)CSc1cc(c3ccccc3c1)OCCCc1c(C(=O)O)n(C)c3c-2c(Cl)ccc13 [AZD5991] + Cn1cnc2c(F)c(Nc3ccc(Br)cc3Cl)c(C(=O)NOCCO)cc21 [Selumetinib] (first compound max 1 µM, 7x7, partner max 3 µM) sits at 0.004 or higher.
MET
